- Target Of Assay: human μ opiate receptor (Homo sapiens, UniProt P35372)
- Construct: purchased PerkinElmer Life Sciences, Zaventem, Belgium RB-HOM; host or cells: CHO-K1 cells (membrane preparation)
- Sequence (P35372 whole entry): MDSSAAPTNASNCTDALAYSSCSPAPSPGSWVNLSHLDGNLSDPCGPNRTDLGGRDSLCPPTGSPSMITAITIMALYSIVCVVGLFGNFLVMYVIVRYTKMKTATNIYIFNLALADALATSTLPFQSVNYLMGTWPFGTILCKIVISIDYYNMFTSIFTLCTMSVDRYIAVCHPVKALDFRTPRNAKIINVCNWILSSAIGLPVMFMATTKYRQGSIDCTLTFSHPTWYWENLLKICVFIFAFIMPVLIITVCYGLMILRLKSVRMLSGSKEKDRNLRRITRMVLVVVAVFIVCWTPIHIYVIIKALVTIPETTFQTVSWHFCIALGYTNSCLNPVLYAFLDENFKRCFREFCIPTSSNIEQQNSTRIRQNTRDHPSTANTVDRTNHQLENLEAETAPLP
- Test Details: Affinity for the human μ opiate receptor ([3H]-naloxone displacement, CHO-K1 receptor membrane preparation, SPA)
- Format: binding
- Measurement Conditions: test concentration of 1 μM; read-out: μ (binding on the μ opioid receptor, % inhibition)
Kindly state inhibition at 1 µM for each of the entries shown.
Answers are plain numbers, in %.

Example cases with answers are listed next.
Cc1ccc(S(=O)(=O)N(C)CCOCC(=O)NCC2CCC(C(c3cccs3)N(C)C)CC2)cc1 (stereo not shown) = 99
Cc1ccc(S(=O)(=O)N2CCC(OCC(=O)NCC3CCC(C(c4cccc(F)c4)N(C)C)CC3)C2)cc1 (stereo not shown) = 78
CN(C)C(c1cccs1)C1CCC(CNC(=O)COC2CCN(S(=O)(=O)c3ccc(F)cc3)C2)CC1 (stereo not shown) = 92
COc1cc(C)c(S(=O)(=O)N2CCN(CCOCC(=O)NCCC3CCC(C(c4cccc(F)c4)N(C)C)CC3)CC2)c(C)c1C (stereo not shown) = 80
CN(C)C(c1cccc(F)c1)C1CCC(NC(=O)COCCN(C)S(=O)(=O)c2ccc(Cl)cc2)CC1 (stereo not shown) = 81
COc1ccc(S(=O)(=O)N2CCCCC2COCC(=O)NC2CCC(C(c3ccccc3)N(C)C)CC2)c(OC)c1 (stereo not shown) = 79

Please find the next compound below.
Exercise: Write inhibition at 1 µM of Cc1ccc(S(=O)(=O)N(C)CCOCC(=O)NCC2CCC(C(c3ccccc3)N(C)C)CC2)cc1 (stereo not shown) ; system used: human μ opiate receptor (Homo sapiens, UniProt P35372)
Solution: 87
